methodSummary: chemical genetic growth profiling, strain panel (AID 1159580)
experimentalContext: S. cerevisiae deletion strains, growth OD, locus YER155C, strain BEM2 (second series)
Among all 5,500 compounds or so, about 2,000 (36%) were called active. About 18% were inconclusive and are not listed. Rule as the data show it: active = normalized growth mostly below about 0.91 (no sharp cut-off); inconclusive = no clear call, values can overlap the other calls; inactive = mostly above about 0.92. The list shows a part of the results.
Outcomes: active, inactive

>  <compound>
CC1=C(/C=C/C(C)=C/C=C/C(C)=C/C=C/C=C(C)/C=C/C=C(C)/C=C/C2=C(C)C(=O)C(O)CC2(C)C)C(C)(C)CC(O)C1=O (stereo not drawn)

>  <classAssignment>
inactive

$$$$
>  <compound>
OCCN1C[C@@H](O)[C@@H](O)C(O)C1CO (stereo partly drawn)

>  <classAssignment>
inactive

$$$$
>  <compound>
COc1ccc2c(c1)OCc1c-2oc2cc(OC)ccc12

>  <classAssignment>
active

$$$$
>  <compound>
CC(=O)OCC[N+](C)(C)C

>  <classAssignment>
inactive

$$$$
>  <compound>
COc1cc(O)c(C(=O)/C=C/c2ccc(O)c(OC)c2)c(OC)c1

>  <classAssignment>
active

$$$$
>  <compound>
CC1CC2C3CC(F)C4=CC(=O)C=CC4(C)C3(F)C(O)CC2(C)C1(O)C(=O)CO (stereo not drawn)

>  <classAssignment>
inactive

$$$$
>  <compound>
CC(C)OC(=O)C(C)(C)Oc1ccc(C(=O)c2ccc(Cl)cc2)cc1

>  <classAssignment>
inactive

$$$$
>  <compound>
CCN(CCO)CCCC(C)Nc1ccnc2cc(Cl)ccc12 (stereo not drawn)

>  <classAssignment>
inactive

$$$$
>  <compound>
CCCCCCNC(=O)n1cc(F)c(=O)[nH]c1=O

>  <classAssignment>
active

$$$$
>  <compound>
CC(NCCc1ccc(O)cc1)C(O)c1ccc(O)cc1 (stereo not drawn)

>  <classAssignment>
inactive

$$$$
>  <compound>
Cc1cc(O)c(C=O)c(O)c1C(=O)O

>  <classAssignment>
inactive

$$$$
>  <compound>
ClC1=C(Cl)C2(Cl)C3C4C=CC(C4)C3C1(Cl)C2(Cl)Cl (stereo not drawn)

>  <classAssignment>
inactive

$$$$
>  <compound>
COc1ccc2c(C)cc(=O)oc2c1

>  <classAssignment>
inactive

$$$$
>  <compound>
CN1CCc2cc3c(cc2[C@H]1C1OC(=O)c2c1ccc1c2OCO1)OCO3 (stereo partly drawn)

>  <classAssignment>
inactive

$$$$
>  <compound>
CN[C@@H](C)[C@@H](O)c1ccccc1

>  <classAssignment>
inactive

$$$$
>  <compound>
CN(C)c1ccc(C(=C2C=CC(=[N+](C)C)C=C2)c2ccc(N(C)C)cc2)cc1

>  <classAssignment>
active

$$$$
>  <compound>
C[C@]12CCC(=O)C=C1CCC1C2CC[C@@]2(C)C1CC[C@@H]2O (stereo partly drawn)

>  <classAssignment>
inactive

$$$$
>  <compound>
CO[C@H]1[C@H](O)[C@H](O[C@H]2CC[C@]3(C)C4CC[C@]5(C)C(C6=CC(=O)OC6)CC[C@]5(O)C4CC[C@@H]3C2)O[C@@H](C)[C@@H]1O (stereo partly drawn)

>  <classAssignment>
inactive

$$$$
>  <compound>
CC(=O)O[C@H]1[C@@H]2[C@@H](OC(=O)Cc3ccccc3)[C@@H](C)C[C@]2(OC(C)=O)C(=O)/C(C)=C/[C@H]2[C@H](CC[C@@]13CO3)C2(C)C

>  <classAssignment>
inactive

$$$$
>  <compound>
CCCCNc1cc(C(=O)O)cc(S(N)(=O)=O)c1Oc1ccccc1

>  <classAssignment>
inactive

$$$$
>  <compound>
C=C(C)C1CNC(C(=O)O)C1CC(=O)O (stereo not drawn)

>  <classAssignment>
inactive

$$$$
>  <compound>
c1cncc(C2CCCCN2)c1 (stereo not drawn)

>  <classAssignment>
inactive

$$$$
>  <compound>
CC(CCc1ccccc1)NC(C)C(O)c1ccc(O)cc1 (stereo not drawn)

>  <classAssignment>
inactive

$$$$
>  <compound>
CC1CC2C3CCC4=CC(=O)C=C[C@]4(C)[C@@]3(F)[C@@H](O)C[C@]2(C)[C@@]1(O)C(=O)CO (stereo partly drawn)

>  <classAssignment>
inactive

$$$$
>  <compound>
CC(C)(O)[C@@H]1[C@H]2OC(=O)[C@@H]1[C@]1(O)C[C@H]3O[C@]34C(=O)O[C@H]2[C@]14C

>  <classAssignment>
inactive

$$$$
>  <compound>
CCCCCCCCCCCCCCCC[N+](C)(C)C

>  <classAssignment>
active

$$$$
>  <compound>
CCN(CC)CCNC(=O)c1cc(Br)c(N)cc1OC

>  <classAssignment>
inactive

$$$$
>  <compound>
CNC(C)[C@H](O)c1ccccc1 (stereo partly drawn)

>  <classAssignment>
inactive

$$$$
>  <compound>
COc1cc(NC(C)CCCN)c2ncccc2c1 (stereo not drawn)

>  <classAssignment>
active

$$$$
>  <compound>
Cc1cccc(C)c1OCC(C)N (stereo not drawn)

>  <classAssignment>
inactive

$$$$
>  <compound>
COc1cc(/C=C/C(=O)/C=C(O)/C=C/c2ccc(O)c(OC)c2)ccc1O

>  <classAssignment>
active

$$$$
>  <compound>
CC(N)C(=O)OC(C)(C)Cc1ccc(Cl)cc1 (stereo not drawn)

>  <classAssignment>
inactive

$$$$
>  <compound>
CCC(=O)O[C@H]1CCC2C3CCC4=CC(=O)CC[C@]4(C)C3CC[C@@]21C (stereo partly drawn)

>  <classAssignment>
active

$$$$
>  <compound>
NCCSSCCN

>  <classAssignment>
inactive

$$$$
>  <compound>
CN1CCC(=C2c3ccccc3CC(=O)c3sccc32)CC1

>  <classAssignment>
inactive

$$$$
>  <compound>
CCCCCCCCCCCCCCCC(=O)OC/C=C(C)/C=C/C=C(C)/C=C/C1=C(C)CCCC1(C)C

>  <classAssignment>
inactive

$$$$
>  <compound>
CC(N)CCCC(C)(C)O (stereo not drawn)

>  <classAssignment>
inactive

$$$$
>  <compound>
CC1=C(/C=C/C(C)=C/C=C/C(C)=C/C=C/C=C(C)/C=C/C=C(C)/C=C/C(=O)[C@]2(C)C[C@@H](O)CC2(C)C)C(C)(C)C[C@H](O)C1

>  <classAssignment>
inactive

$$$$
>  <compound>
C[N+](C)(C)CCOC(N)=O

>  <classAssignment>
inactive

$$$$
>  <compound>
CC(=O)[C@H]1CCC2C3CCC4=CC(=O)CC[C@]4(C)C3CC[C@@]21C (stereo partly drawn)

>  <classAssignment>
active

$$$$
>  <compound>
CCN(CC)CCCC(C)Nc1ccnc2cc(Cl)ccc12 (stereo not drawn)

>  <classAssignment>
inactive

$$$$
>  <compound>
CC1=C(/C=C/C(C)=C/C=C/C(C)=C/C=C/C=C(C)/C=C/C=C(C)/C=C/C2=C(C)C(=O)CCC2(C)C)C(C)(C)CCC1=O

>  <classAssignment>
inactive

$$$$
>  <compound>
C=Cc1c2[nH]c(c1C)C=c1[nH]c(c(C)c1C=C)=CC1N=C(C=c3[nH]c(c(C)c3CCC(=O)O)=C2)C(CCC(=O)O)=C1C (stereo not drawn)

>  <classAssignment>
inactive

$$$$
